- study-target: HCV E–CD81 PPI (UniProt P27958+P60033)
- Construct: hepatitis C virus envelope glycoprotein E with CD81; 9144-CD
- Sequence (P60033 113-201): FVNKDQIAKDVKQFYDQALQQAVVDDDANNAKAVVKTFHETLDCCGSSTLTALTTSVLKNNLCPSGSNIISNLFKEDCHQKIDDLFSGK
- Sequence (P27958 384-746): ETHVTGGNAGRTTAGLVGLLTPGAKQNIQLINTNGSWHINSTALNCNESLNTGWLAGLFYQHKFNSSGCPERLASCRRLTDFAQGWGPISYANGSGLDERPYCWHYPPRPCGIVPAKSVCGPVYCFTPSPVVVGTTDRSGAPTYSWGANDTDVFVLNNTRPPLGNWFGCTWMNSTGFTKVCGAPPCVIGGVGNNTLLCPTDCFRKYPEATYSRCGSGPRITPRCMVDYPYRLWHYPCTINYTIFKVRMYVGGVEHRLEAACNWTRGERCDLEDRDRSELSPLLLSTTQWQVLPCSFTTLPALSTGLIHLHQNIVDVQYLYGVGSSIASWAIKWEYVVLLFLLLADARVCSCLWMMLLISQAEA
- experiment-summary: biochemical
endpoint: pIC50
Worth noting: pIC50 values are minus log10 of concentrations stated in mol/L.

Look up pIC50: CN(C)c1ccc2nc3ccc(=[N+](C)C)cc-3sc2c1
6.10

---

- study-target: HCoV-NL63 S1–hACE2 PPI (Homo sapiens, UniProt Q9BYF1)
- Construct: HCoV-NL63 S1 (His tag, 40600-V08H); 10108-H05H
- Sequence (Q9BYF1 18-740): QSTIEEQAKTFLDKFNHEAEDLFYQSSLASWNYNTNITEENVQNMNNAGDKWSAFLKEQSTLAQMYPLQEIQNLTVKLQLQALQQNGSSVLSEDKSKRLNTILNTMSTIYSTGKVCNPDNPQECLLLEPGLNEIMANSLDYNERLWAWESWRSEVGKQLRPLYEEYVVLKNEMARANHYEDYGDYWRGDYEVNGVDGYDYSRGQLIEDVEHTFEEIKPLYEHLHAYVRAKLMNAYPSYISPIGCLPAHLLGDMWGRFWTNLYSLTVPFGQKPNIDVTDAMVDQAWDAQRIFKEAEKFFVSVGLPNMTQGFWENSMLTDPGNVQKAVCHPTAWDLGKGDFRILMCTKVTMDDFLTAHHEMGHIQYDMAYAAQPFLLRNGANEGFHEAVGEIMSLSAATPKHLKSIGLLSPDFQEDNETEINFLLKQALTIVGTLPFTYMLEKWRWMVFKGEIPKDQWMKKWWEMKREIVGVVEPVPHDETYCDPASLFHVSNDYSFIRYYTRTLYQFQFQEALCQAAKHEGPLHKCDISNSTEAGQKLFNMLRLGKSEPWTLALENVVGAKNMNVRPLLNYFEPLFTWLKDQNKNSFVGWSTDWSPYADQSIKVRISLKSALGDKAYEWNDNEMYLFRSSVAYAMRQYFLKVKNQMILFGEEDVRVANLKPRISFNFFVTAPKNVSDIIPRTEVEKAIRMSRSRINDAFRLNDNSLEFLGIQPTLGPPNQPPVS
- experiment-summary: biochemical
endpoint: IC50
Returns: string containing the numeric result and its unit.

Look up IC50: CN(C)c1ccc2nc3ccc(=[N+](C)C)cc-3sc2c1
1930 nM
